# Tested on: COLO 205
# ASSAY: NCI tumour cell line growth inhibition, 48 h
Activity calls are given as the source filed them. No stated cut-off is given here; in the data, active = GI50 up to about 1.1 µM and inactive = higher. Square brackets hold non-standard residues; d marks the D form. Peptide text beside a SMILES is read from it. Ac5c = NC1(C(=O)O)CCCC1
PARAMETER: GI50

Here are 4 compounds together with their reported answers.
# return recorded GI50 for entry CSC1=N/C(=C\c2ccc(C)cc2)C(=O)N1CN1CCCCC1
73.1 µM (inactive)

Please list GI50 recorded for the compound CCC(C)NC1=C(NC(C)=O)C(=O)c2ccccc2C1=O (stereo unspecified)
> 75 µM (inactive)

State its GI50: Cc1ccc(NC(=O)CCc2nnc3s/c(=C\C=C\c4ccccc4)c(=O)n23)cc1
> 100 µM (inactive)

Provide GI50 value for the following compound: CCOC(=O)[N-]c1ccc(S(=O)(=O)[O+](C)CCl)cc1.CCOC(=O)[N-]c1ccc(S(=O)(=O)[O+](C)CCl)cc1.NC(=O)N=O.NC(=O)OCCCl
> 100 µM (inactive)

New cases:
Provide only the value of recorded GI50 for O=C(O)CSC1=NCCN1
> 100 µM (inactive)

Annotate the compound COC(=O)CC(=O)OSc1ccccc1 with its measured GI50.
19.5 µM (inactive)

Annotate the compound N=S(c1ccccc1[N+](=O)[O-])c1ccccc1[N+](=O)[O-] with its measured GI50.
1.3 µM (inactive)

Quickly give me recorded GI50 for O=C1C2C3CCC(C2C(=O)N1CO)C1C2C(=O)N(CO)C(=O)C2C31 (stereo unspecified)
40.4 µM (inactive)

Give recorded GI50. CSc1nncc2[nH]c(C)nc12
> 100 µM (inactive)

Tell me its GI50 given Cc1cn(Cc2ccccc2CCO)c(=S)[nH]c1=O as the entry.
> 100 µM (inactive)

Name the recorded GI50 of the compound listed here: CCOC1NC(/N=C/c2ccc(OC)cc2)=C(C#N)C1C#N (stereo unspecified)
75.3 µM (inactive)

Please give the documented GI50 of NCC(=O)NC1(C(=O)O)CCCC1 (H-Gly-[Ac5c]-OH)
> 100 µM (inactive)

Please look at this compound and report its GI50: N#Cc1c(N)[nH]c(=S)c(C#N)c1-c1cccc(Cl)c1
15.2 µM (inactive)

Given COc1ccc(N2C(=O)c3cc(C)cnc3S2(=O)=O)cc1 , respond with its GI50.
> 100 µM (inactive)

Identify measured GI50 associated with C=CCc1cc(OC)c2c(c1)C(O)CC(c1ccccc1)O2 (stereo unspecified)
> 100 µM (inactive)

Find the measured GI50 of COC(=O)C1CC/C(=N\c2cccc(C(F)(F)F)c2)N1 (stereo unspecified) and report it.
> 100 µM (inactive)

Values were extracted from ChEMBL document CHEMBL1201862.
